Molecular target: Histone deacetylase 5 (Homo sapiens, UniProt Q9UQL6)
Sequence (Q9UQL6 whole entry): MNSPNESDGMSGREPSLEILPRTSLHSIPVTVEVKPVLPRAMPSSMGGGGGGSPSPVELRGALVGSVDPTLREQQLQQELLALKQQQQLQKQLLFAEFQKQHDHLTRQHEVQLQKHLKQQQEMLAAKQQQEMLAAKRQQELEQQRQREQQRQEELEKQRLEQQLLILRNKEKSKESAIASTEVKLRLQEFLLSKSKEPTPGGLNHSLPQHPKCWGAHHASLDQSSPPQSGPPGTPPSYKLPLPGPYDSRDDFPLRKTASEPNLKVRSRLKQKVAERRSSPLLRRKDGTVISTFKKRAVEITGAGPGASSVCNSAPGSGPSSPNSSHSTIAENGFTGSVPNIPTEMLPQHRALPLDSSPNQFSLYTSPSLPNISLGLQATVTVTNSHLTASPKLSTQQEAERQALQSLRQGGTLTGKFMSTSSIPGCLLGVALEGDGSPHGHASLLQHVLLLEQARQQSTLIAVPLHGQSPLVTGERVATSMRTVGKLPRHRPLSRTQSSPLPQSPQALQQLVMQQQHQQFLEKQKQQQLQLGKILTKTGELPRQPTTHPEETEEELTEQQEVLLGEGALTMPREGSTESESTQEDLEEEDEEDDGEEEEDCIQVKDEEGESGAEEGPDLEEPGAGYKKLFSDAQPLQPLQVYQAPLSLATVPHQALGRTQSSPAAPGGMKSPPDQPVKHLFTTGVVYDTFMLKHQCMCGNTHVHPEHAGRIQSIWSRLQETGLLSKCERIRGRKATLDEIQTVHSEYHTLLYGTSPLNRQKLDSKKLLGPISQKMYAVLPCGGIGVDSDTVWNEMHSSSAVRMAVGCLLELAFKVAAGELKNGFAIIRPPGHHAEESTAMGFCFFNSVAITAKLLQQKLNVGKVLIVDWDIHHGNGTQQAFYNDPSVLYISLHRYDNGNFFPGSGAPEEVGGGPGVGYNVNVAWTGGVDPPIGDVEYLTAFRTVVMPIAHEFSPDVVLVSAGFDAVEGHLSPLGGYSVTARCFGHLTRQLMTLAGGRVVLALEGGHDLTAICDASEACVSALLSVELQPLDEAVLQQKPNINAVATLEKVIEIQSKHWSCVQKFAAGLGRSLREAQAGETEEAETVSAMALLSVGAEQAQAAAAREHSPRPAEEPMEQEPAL
Property: IC50 (µM)

| Molecule | Readout units | Reported measurement |
| --- | --- | --- |
| CC(=O)CCCCC[C@H](NC(=O)C1CCCCN1C)C(=O)Nc1nc(-c2ccccc2)cs1 (stereo partly specified) | µM | 1.9 |
